Experiment: qHTS assay to identify small molecule antagonists of the thyroid receptor (TR) signaling pathway (AID 743065); further: nearly all actives have a fitted effect of over 55% in size
Settings: GH3.TRE-Luc, T3-stimulated luciferase inhibition, 23.5 h; series mostly up to 70.3 µM
Inconclusive results are not listed. The source made the active and inactive calls. The call rests on the fitted dose curve; in most records, active means well fitted inhibition curve with a large enough effect in the repeat runs; inconclusive means weak or mixed curves; inactive means no such curve, though single readings can be large or run the other way.
Classes used: active, inactive

molecule	group.label
c1ccc2c(c1)Sc1ccccc1N2CCN1CCCC1	active
CCCN(CC)C(CC)C(=O)Nc1c(C)cccc1C (stereo not given)	inactive
CC1(C)C(\C=C/C=C\C=C/C=C2/N(CCCCS(=O)(=O)O)c3ccc4ccccc4c3C2(C)C)=[N+](CCCCS(=O)(=O)[O-])c2ccc3ccccc3c21	active
CCCCCCCN(CC)CCCC(O)c1ccc(NS(C)(=O)=O)cc1 (stereo not given)	active
O=[N+]([O-])c1c(Cl)cccc1-c1c[nH]cc1Cl	active
CC(=O)[C@@]1(O)CC[C@H]2[C@@H]3C=C(Cl)C4=CC(=O)[C@@H]5C[C@@H]5[C@]4(C)[C@H]3CC[C@@]21C	inactive
CC(=O)[C@]1(O)Cc2c(O)c3c(c(O)c2[C@@H](O[C@H]2C[C@H](N)[C@H](O)[C@H](C)O2)C1)C(=O)c1c(O)cccc1C3=O	active
CS(=O)(=O)OCC(O)C(O)COS(C)(=O)=O (stereo not given)	inactive
O=C(O)CCC/C=C\C[C@@H]1[C@@H](/C=C/[C@@H](O)COc2cccc(Cl)c2)[C@H](O)C[C@@H]1O	inactive
CCCC1([C@H](O)C/C=C/[C@H]2[C@H](O)CC(=O)[C@@H]2CCCCCCC(=O)OC)CCC1	active
CCc1ccc(S(=O)(=O)O)cc1	inactive
CO[C@@H]1[C@@H](O[C@@H]2O[C@H](C)[C@@H](O[C@H]3C[C@@](C)(O)[C@@H](OC(=O)CC(C)C)[C@H](C)O3)[C@H](N(C)C)[C@H]2O)[C@@H](CC=O)C[C@@H](C)C(=O)/C=C/C2OC2C[C@@H](C)OC(=O)C[C@H]1OC(C)=O (stereo not given in full)	active
CCN(CC)CCC(=O)N1c2ccccc2Sc2ccc(Cl)cc21	active
CO/N=C(\C(=O)N[C@@H]1C(=O)N2C(C(=O)O)=C(CSC(=O)c3ccco3)CS[C@H]12)c1csc(N)n1	inactive
CC(C)N1CCN(c2ccc(OC[C@H]3CO[C@](Cn4cncn4)(c4ccc(Cl)cc4Cl)O3)cc2)CC1	active
O=C1NCCN1c1ncc([N+](=O)[O-])s1	inactive
C[C@H]1C[C@@H]2[C@H]([C@@H](O)C[C@@]3(C)[C@H]2CC[C@]3(O)C(=O)COC(=O)CCC(=O)O)[C@@]2(C)C=CC(=O)C=C12	inactive
CCCC(CCC)C(N)=O	inactive
C[C@H]1[C@@H](OC(=O)CCC(=O)O)O[C@@H]2OC3(C)CC[C@H]4[C@H](C)CC[C@@H]1[C@@]24OO3	active
COC(=O)[C@@H](N)CS	inactive
S=C=Nc1ccc(N=C=S)cc1	inactive
CCN(CC)CCOc1ccc(-c2nc3cc(Cl)ccc3s2)cc1	active
O=C(OC1C[C@@H]2CC3C[C@H](C1)N2CC3=O)c1c[nH]c2ccccc12 (stereo not given in full)	active
CCCCCCCCCCCCCCCCCC[N+](C)(C)CCC[Si](OC)(OC)OC	inactive
CC(C)(C)NCC(O)CSc1nc(-c2ccc(C(N)=O)s2)cs1 (stereo not given)	inactive

Values from PubChem BioAssay (Tox21)
